Cited source: PubChem BioAssay AID1159580

test: chemical genetic growth profiling, strain panel (AID 1159580);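 note: tested at 20 µM; growth read once vehicle control cultures reached saturation at 30 °C; 1 = growth at the plate median or of vehicle wells; lower values mean less growth of the strain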; conditions: S. cerevisiae deletion strains, growth OD, locus YPL241C, strain CIN2, active compounds read low
In all, about 5,500 compounds went through this assay and about 2,000 (36%) were called active. Roughly 18% stayed inconclusive and do not appear here. The list shows a part of the results.
Would you mind telling me the reported normalized growth of each entry?
Give bare numbers.

Example cases with answers are listed next.
N#Cc1csc([N+](=O)[O-])c1 ... 0.744
FC(F)(F)c1cc(-n2c(CCc3nc(-c4ccc(Cl)cc4)no3)n[nH]c2=S)cc(C(F)(F)F)c1 ... 0.965
CCn1cnc2c(Nc3cccc(Cl)c3)nc(N[C@@H]3CCCC[C@@H]3N)nc21 ... 1.01

Dear colleague, could you please provide normalized growth for the compounds listed below?
1. N[C@H](CCCCCP(=O)(O)O)C(=O)O
2. N#Cc1cc2nc(O)c(O)nc2cc1[N+](=O)[O-]
3. COC(=O)CCC(=O)O[C@H]1CCC2(C)C(CCC3C2C(=O)[C@@H](O)C2(C)C3CC3OC4(CCC(C)CO4)[C@@H](C)C32)C1 (stereo partly specified)

Response:
1
1
1

Look up normalized growth for the entries below, preserving their order.
1. CCCCS(=N)(=O)CCC(N)C(=O)O (stereo unspecified)
2. N#C/C(=C\c1cccc(O)c1)C(=O)O

Response:
1. 0.998
2. 0.987

For every listed record, write down its normalized growth.
1. O=C(O)CC(CC(=O)Nc1ccc(I)cc1F)c1ccc(C(F)(F)F)cc1 (stereo unspecified)
2. COc1ccc(-c2ccc(C=C(C#N)C#N)s2)cc1
3. N[C@@H](CC(=O)O)C(=O)O

Response:
0.986
1.07
1.01

====

Provide the reported normalized growth of each item.
assay: chemical genetic growth profiling, strain panel (AID 1159580);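 note: tested at 20 µM; growth read once vehicle control cultures reached saturation at 30 °C; 1 = growth at the plate median or of vehicle wells; lower values mean less growth of the strain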; conditions: S. cerevisiae deletion strains, growth OD, locus YNL128W, strain TEP1, active compounds read low
Hit rate of the full screen: of about 5,500 compounds, about 2,000 (36%) were called active. Inconclusive results (about 18%) are left out. Some of the results follow.
Numbers only.

CN(C)CCC(c1ccc(Br)cc1)c1ccccn1 (stereo not drawn) ... 0.988

Look at each compound and report its normalized growth.
1. Cc1ccc2cc(NC(=O)c3ccco3)ccc2n1
2. CC(=O)Nc1ccc(C(F)(F)F)cc1Br
3. Cc1cscc1S(=O)(=O)c1ccc(Cl)cc1

Response:
1: 0.962; 2: 0.964; 3: 0.994

Report normalized growth for every entry below.
1. C=C1C2CC[C@@]3(C)[C@H](c4ccoc4)OC(=O)C[C@]13O[C@H]1CC(=O)C(C)(C)C(CC(=O)OC)[C@@]21C (stereo partly drawn)
2. COC(=O)CCC(C)[C@H]1CCC2C3C(C[C@H](O)[C@@]21C)[C@@]1(C)CC[C@@H](O)C[C@H]1C[C@H]3O (stereo partly drawn)
3. NC(N)=O
4. CN(C)CCOC(=O)COc1ccc(Cl)cc1
5. O=C(O)CCCOc1ccc(Cl)cc1Cl
6. Nc1ccncc1
7. NCC(CC(=O)O)c1ccc(Cl)cc1 (stereo not drawn)

Response:
[0.996, 1.02, 1.02, 1.03, 1.01, 1.02, 1.01]

Below are some compounds; for each one, tell me its normalized growth.
1. O=[N+]([O-])c1cccc2cn[nH]c12
2. CC(CCC(=O)O)[C@H]1CCC2C3CC[C@@H]4C[C@H](O)CC[C@]4(C)C3CC[C@@]21C (stereo partly drawn)

Response:
1: 0.998; 2: 0.866
